Tested on: HepG2 (human hepatocellular carcinoma)
Experiment Notes: MTS cytotoxicity test, HepG2
Assay type: cell-based
Conditions: HepG2 (liver), read-out: EC50 (concentration where half of the cells died, MTS test)
Attribute Measured: EC50 (µM)

• Cc1ccnc(NC(c2ccc(C(F)(F)F)cc2)c2ccc3cccnc3c2O)n1 (centres unmarked) [Example 10] = 1
• Cc1cccc(NC(c2ccc(F)c(F)c2)c2ccc3cccnc3c2O)n1 (centres unmarked) [Example 16] = 5
• Cc1cccc(NC(c2ccc(C(F)(F)F)cc2F)c2ccc3cccnc3c2O)n1 (centres unmarked) = 1
• Cc1cccc(NC(c2ccc(C(F)(F)F)cc2)c2ccc3cccnc3c2O)n1 (centres unmarked) [Example 7] = 0.5
• Oc1c(C(Nc2ccc(C(F)(F)F)cc2)c2ccccn2)ccc2cccnc12 (centres unmarked) [Example 5] = 2
• Cc1ccnc(NC(c2ccccc2O)c2ccc3cccnc3c2O)n1 (centres unmarked) [Example 11] = 1
• CCOC(=O)c1ccc(NC(c2ccc([N+](=O)[O-])cc2)c2ccc3cccnc3c2O)cc1 (centres unmarked) [Example 2] = 2.5
• Cc1cccc(NC(c2ccc([N+](=O)[O-])cc2)c2ccc3cccnc3c2O)n1 (centres unmarked) [Example 1] = 0.5

###

Tested on: CCRF-CEM (human leukaemia)
Experiment Notes: MTS cytotoxicity test, CCRF-CEM
Assay type: cell-based
Conditions: read-out: EC50 (concentration where half of the cells died, MTS test)
Attribute Measured: EC50 (nM)

• Cc1cccc(NC(c2ccc([N+](=O)[O-])cc2)c2ccc3cccnc3c2O)n1 (stereo not shown) [Example 1] = 1000
• Cc1cccc(NC(c2ccc(C(F)(F)F)cc2)c2ccc3cccnc3c2O)n1 (stereo not shown) [Example 7] = 300
• Oc1c(C(Nc2ccc(C(F)(F)F)cc2)c2ccccn2)ccc2cccnc12 (stereo not shown) [Example 5] = 100
• CCOC(=O)c1ccc(NC(c2ccc([N+](=O)[O-])cc2)c2ccc3cccnc3c2O)cc1 (stereo not shown) [Example 2] = 1000
